Data provenance is ChEMBL document CHEMBL1141805.

pIC50: −log10 of the molar value.
# Prothrombin (Homo sapiens, UniProt P00734): pIC50 values follow

{"columns": ["compound", "pIC50"],
 "data": [
  ["C/C(=C\\Cc1cc(O)ccc1O)CCC[C@@H](C)[C@@H](C[C@@H]1CCC[C@H]2C(C)(C)CCC[C@@]12C)OS(=O)(=O)[O-].[Na+] [HALISULPHATESODIUM]", 4.20],
  ["CC1(C)CCC[C@H]2[C@H]1CC[C@@]1(C)[C@@H]2CC/C(=C\\OS(=O)(=O)[O-])[C@@H]1CCc1ccoc1.[Na+]", 4.71]
]}
